tested on: U2OS; assay: Multiplex assay against U2OS; format: toxicity, cell-based; settings: human, 24 h, 1 µM, compound concentration 1 uM, replicate 2
Just a reminder that ties go to Not met: only Population Normal (%) strictly below 90% counts as Met.

[[record]]
compound = "CN1CCC[C@@H]1CCO[C@](C)(c1ccccc1)c1ccc(Cl)cc1.O=C(O)/C=C/C(=O)O [CLEMASTINE FUMARATE]"
label_class = "Not met"

[[record]]
compound = "CC(C)(O)CNc1ncc(-c2ccnc(Nc3ccnc(Cl)c3)n2)c(CC2CC2)n1"
label_class = "Not met"

[[record]]
compound = "CN1CCN(c2ccc(OC(F)(F)F)c(Nc3ncc4c(n3)-c3c(c(C(N)=O)nn3CCO)CC4)c2)CC1"
label_class = "Not met"

[[record]]
compound = "Cl.N#Cc1ccc2[nH]cc(CCCCN3CCN(c4ccc5oc(C(N)=O)cc5c4)CC3)c2c1 [VILAZODONE HYDROCHLORIDE]"
label_class = "Not met"

[[record]]
compound = "C=CC(=O)Nc1cc2c(Nc3ccc(F)c(Cl)c3)ncnc2cc1OCCCN1CCOCC1.Cl.Cl [CANERTINIB DIHYDROCHLORIDE]"
label_class = "Met"

[[record]]
compound = "CN(C)C(=O)/C(C#N)=C/c1ccc(-c2nc3cnc4[nH]ccc4c3n2C2CCCCC2)o1"
label_class = "Not met"

[[record]]
compound = "Cc1nc(Nc2n[nH]c3c2CN(C(=O)N[C@H](CN(C)C)c2ccccc2)C3(C)C)c2sccc2n1"
label_class = "Met"

[[record]]
compound = "Cc1cc(C)cc(-c2cnc3cc(Cl)c(-c4cccc(O)c4)cc3c2OCCCN)c1"
label_class = "Not met"

[[record]]
compound = "O=C1NCN(c2ccccc2)C12CCN(CCCOc1ccc(F)cc1)CC2 [SPIRAMIDE]"
label_class = "Not met"

[[record]]
compound = "Cc1csc2c(N[C@@H](C)CN3CCN(S(=O)(=O)c4ccc(Cl)c(Cl)c4)CC3)ncnc12"
label_class = "Not met"

[[record]]
compound = "CCN(CC)CCCCNc1ncc2cc(-c3cc(OC)cc(OC)c3)c(NC(=O)NC(C)(C)C)nc2n1"
label_class = "Met"

[[record]]
compound = "Cn1cc(-c2[nH]c3cc(NC(=O)[C@H](N)C4CCCCC4)cc4c3c2C=NNC4=O)cn1"
label_class = "Not met"

[[record]]
compound = "NC(=O)Nc1cc(-c2cccc(F)c2)sc1C(=O)N[C@H]1CCCNC1"
label_class = "Met"

[[record]]
compound = "c1cn2cc(-c3ccc4cn[nH]c4c3)nc(Nc3ccc(N4CCOCC4)cc3)c2n1"
label_class = "Not met"

[[record]]
compound = "CN(C)C(=O)N[C@H]1CC[C@H](CCN2CCN(c3cccc(Cl)c3Cl)CC2)CC1.Cl [CARIPRAZINE HYDROCHLORIDE]"
label_class = "Not met"

[[record]]
compound = "C[C@@]1(C(=O)Nc2ccc(F)nc2)CCCN1c1nc(Nc2cc(C3CC3)n[nH]2)c2cccn2n1"
label_class = "Met"

[[record]]
compound = "CC(C)NCC(O)COc1ccc(CCOCC2CC2)cc1.Cl (stereo unspecified) [BETAXOLOL HYDROCHLORIDE]"
label_class = "Not met"

[[record]]
compound = "Cc1nc(-c2cn3c(n2)-c2ccc(-c4cnn(C(C)(C)C(N)=O)c4)cc2OCC3)n(C(C)C)n1"
label_class = "Not met"

[[record]]
compound = "Cc1c(-c2ccc(O)cc2)n(Cc2ccc(OCCN3CCCCCC3)cc2)c2ccc(O)cc12"
label_class = "Not met"

[[record]]
compound = "CNc1nc(NCc2ccc(NS(C)(=O)=O)cc2Cl)cc(-c2ccccn2)n1"
label_class = "Not met"

